read-out: Collagen III, COL3A1 (gene 1281); assay: BSK_hDFCGF_CollagenIII: BioMAP Diversity Plus: hDFCGF Assay for Collagen III Biomarker Activity (AID 2283056); conditions: primary human foreskin fibroblasts; actives raise or lower the signal
Activity calls are given as the source filed them. How the source made its calls: active means hit-call score of the fitted dose curve at least 0.9, where 1 is the maximum; inactive means score below 0.9.
Give one outcome, nothing more. List: active, inactive

Task item: # outcome recorded in this test, key = CC(=O)OCCC(C)CC(C)(C)C (configuration not stated)
Reply: inactive

Task item: # outcome recorded in this test, key = `Cc1cc(C2(c3cc(C)c(O)cc3C)OS(=O)(=O)c3ccccc32)c(C)cc1O`
Reply: inactive

Task item: # outcome recorded in this test, key = `C#C[C@]1(O)CC[C@H]2[C@@H]3CCC4=Cc5oncc5C[C@]4(C)[C@H]3CC[C@@]21C`
Reply: inactive

Task item: # outcome recorded in this test, key = `Nc1cc([N+](=O)[O-])ccc1O`
Reply: inactive

Task item: # outcome recorded in this test, key = `O=C1OC2(c3cc(Br)c(O)c(Br)c3Oc3c2cc(Br)c(O)c3Br)c2c(Cl)c(Cl)c(Cl)c(Cl)c21`
Reply: active

Task item: # outcome recorded in this test, key = `O=P(c1ccccc1)(c1ccccc1)c1ccccc1`
Reply: inactive

Task item: # outcome recorded in this test, key = `O=C(O)c1cn(-c2ccc(F)cc2)c2cc(N3CCNCC3)c(F)cc2c1=O`
Reply: inactive

Task item: # outcome recorded in this test, key = `CCC(=O)OCc1ccccc1`
Reply: inactive

Task item: # outcome recorded in this test, key = `O=C(O)c1cn(C2CC2)c2cc(N3CCNCC3)c(F)cc2c1=O`
Reply: inactive

Task item: # outcome recorded in this test, key = BrC1CCC(Br)C(Br)CCC(Br)C(Br)CCC1Br (configuration not stated)
Reply: inactive

Task item: # outcome recorded in this test, key = `O=C1CCCCCCCCCCCCCCO1`
Reply: active

Task item: # outcome recorded in this test, key = `CC(C)Oc1ccccc1O`
Reply: inactive

Task item: # outcome recorded in this test, key = `CCc1c(C)cc(N)c(CC)c1N`
Reply: inactive

Task item: # outcome recorded in this test, key = `OC[C@H]1O[C@H](O[C@]2(CCl)O[C@H](CCl)[C@@H](O)[C@@H]2O)[C@H](O)[C@@H](O)[C@H]1Cl`
Reply: inactive

Task item: # outcome recorded in this test, key = `Nc1cc([N+](=O)[O-])ccc1Cl`
Reply: inactive

Task item: # outcome recorded in this test, key = `Cc1ccc2n[nH]nc2c1`
Reply: inactive

Task item: # outcome recorded in this test, key = OC1OC[C@@H](O)[C@H](O)[C@H]1O (some centres not stated)
Reply: inactive
